Entry source: PubChem BioAssay (NCI)

# Test system: TK-10 renal
# assay-remarks: NCI tumour cell line growth inhibition, 48 h; in the data active = GI50 below about 0.43 µM; inactive = the rest
The reply should name one outcome from 1 (yes) = active, 0 (no) = inactive

Ask: Assay result, entry "O=c1c2c(nc3n1CCS3)[nH]c1cc([N+](=O)[O-])ccc12" — outcome?
Result: 0 (no)

Ask: Hello, I am checking results. What call was entered for "NS(=O)(=O)OC[C@H]1C[C@@H](Nc2ccnc3cc(-c4cccc(SC(F)(F)F)c4)nn23)[C@H](O)[C@@H]1O" ?
Result: 1 (yes)

Ask: # lookup: test call for "Cc1c(C)n(CCCN2CCN(C)CC2)c2ccc(Oc3cccc(C(=O)N4CCN(CCc5ccc(F)cc5)CC4)c3)cc12"
Result: 0 (no)

Ask: Field: outcome | Entry: "CCOC(=O)C1=CCCC[C@H]1S(=O)(=O)Nc1ccc(F)cc1Cl"
Result: 0 (no)

Ask: Which result was noted for this compound in the test: "COc1c/c(=C2\C=c3ccccc3=N2)[nH]/c1=C\c1[nH]c(C)cc1C"
Result: 1 (yes)

Ask: What call does the record list for "OC(CNc1ccnc2cc(Cl)ccc12)CNc1ccnc2cc(Cl)ccc12" ?
Result: 0 (no)

Ask: Write down the call the test reported for this compound. Item: "Cc1onc(-c2ccccc2)c1C(=O)N/N=C/c1cc(Cl)cc(Cl)c1O"
Result: 0 (no)

Ask: What classification did "O=C(NCCCCN1CCOCC1)c1cc2ccccc2o1" end up with in this test?
Result: 0 (no)

Ask: What did the test return for CC(=O)O[C@@H]1C2CCC3C(CC[C@@]4(C)C3CC[C@@H]4C(C)N(C)C)[C@@]2(C)CC[C@@H]1NC(=O)C=C(C)C (some centres not stated) ?
Result: 0 (no)

Ask: Given "CN[C@H]1CN(c2ccc3c(=O)c(C(=O)O)cn(-c4nccs4)c3n2)C[C@@H]1OC" , state the outcome it received in this test.
Result: 0 (no)

Ask: Could you kindly confirm the outcome this assay logged for "Cc1cc2c(C(=O)NC[C@H](C)c3ccccc3)c(O)c(O)cc2c(O)c1-c1c(C)cc2c(C(=O)NC[C@H](C)c3ccccc3)c(O)c(O)cc2c1O" ?
Result: 1 (yes)

Ask: Could you please tell me the result logged for "O=c1c2ccccc2sc2c(NCCCNCCO)nc3ccccc3c12" in this assay?
Result: 0 (no)

====

# Test system: DMS 114 small cell lung
# assay-remarks: NCI tumour cell line growth inhibition, 48 h
Would you kindly list TGI for each of these compounds?

Ask: Enter reported TGI observed with DMS 114 small cell lung for C=CSCCC(N)C(=O)O (stereo unspecified)
Result: > 100 µM

Ask: Give TGI (DMS 114 small cell lung) of the following compound: CC1(C)OC2C(CCP(=O)(O)O)OC(c3nc(C(N)=O)cs3)C2O1 (stereo unspecified)
Result: > 100 µM

Ask: Kindly state the measured TGI obtained for "NNC(=O)C(=O)N/N=C(\CCCC(=O)Nc1ccc(Cl)cc1)CC(=O)c1ccc(F)cc1" with DMS 114 small cell lung.
Result: > 100 µM

Ask: Value wanted: TGI (DMS 114 small cell lung) of entry COc1cc(C2C(Cl)C(=O)N2NC(=O)Cc2ccccc2)cc(Br)c1O (stereo unspecified)
Result: > 100 µM

Ask: Request: TGI, test system DMS 114 small cell lung, entry CCOC(OC(C)=O)[C@@H]1C=C[C@H](C)N(c2ccc([N+](=O)[O-])cc2)O1 (stereo partly specified)
Result: 16.9 µM

Ask: Identify the measured TGI of "O=C(C(=O)c1cc2ccccc2[nH]1)c1cc2ccccc2[nH]1" for DMS 114 small cell lung.
Result: > 347 µM

Ask: Missing value: TGI, DMS 114 small cell lung, entry "COc1cccc2c1c1ccc3c(c1n2C)C(=O)C=CC3=O" . Fill in?
Result: 43.4 µM

Ask: What value of TGI on DMS 114 small cell lung does "O=C(/C=C\c1ccccc1O)c1ccc(O)cc1O" have?
Result: > 100 µM

Ask: Quick check: TGI on DMS 114 small cell lung, item "C=C[C@@H](C)[C@]1(C(=O)OC)CCCC12OCCO2" ?
Result: > 100 µM

Ask: # query: TGI | item "CCN(CC)CCCNc1nccc2c(C)c3c(cc12)c1cnccc1n3C" | system: DMS 114 small cell lung
Result: 0.463 µM

Ask: Item: "NCCSSCc1ccccc1CSSCCN" Test system: DMS 114 small cell lung Read-out: TGI Value: ?
Result: > 100 µM

Ask: Give recorded TGI with DMS 114 small cell lung for the following compound: C=CCC1(CN(C)C)CC/C(=C\c2ccc(OC)cc2)C1=O (stereo unspecified)
Result: > 100 µM

Ask: Field: TGI (DMS 114 small cell lung). Entry: CSc1nc(-c2ccc(Cl)cc2)c(C#N)c(=O)n1C1OC(COC(C)=O)C(OC(C)=O)C(OC(C)=O)C1OC(C)=O (stereo unspecified)
Result: > 100 µM

Ask: Tell me reported TGI for "CC(=O)Nc1ccc(/C=C/C(=O)c2sc(-c3cccnc3)nc2C)cc1" , tested with DMS 114 small cell lung.
Result: > 100 µM

Ask: So what TGI did OC12c3ccccc3C1CCCCC2N1CCCC1 (stereo unspecified) get with DMS 114 small cell lung?
Result: > 100 µM

Ask: Item "COc1cc(/C=C2\C(=O)N(C(=O)Cc3ccccc3)N=C2C)cc(OC)c1OC" with DMS 114 small cell lung - TGI?
Result: > 100 µM

Ask: Lab note: need TGI with DMS 114 small cell lung for entry Cc1ccc(C)c(N2C(=O)C(=O)C(c3nc4ccccc4s3)/C(=N/N)C2=O)c1 (stereo unspecified) , please look it up.
Result: > 100 µM

Ask: # value lookup — system DMS 114 small cell lung, readout TGI, item CC(C)N(C(=O)C12C3C4C5(C#N)C3C1(C#N)C5C42C#N)C(C)C (stereo unspecified)
Result: > 100 µM

Ask: Query for DMS 114 small cell lung: what TGI does the record show for "COc1cc2cc(OC(C)=O)c3cc4c(cc3c2c(OC)c1OC)OCO4" ?
Result: > 100 µM

Ask: What TGI appears in the records for this compound with DMS 114 small cell lung? COC(=O)[C@@H]1c2cc3c(c(O)c2[C@@H](OC2OC(C)C(OC)C(C)(OC)C2OC)C[C@]1(C)O)C(=O)c1c(O)cc2c(c1C3=O)O[C@H]1O[C@]2(C)[C@H](O)[C@@H](N(C)C)[C@@H]1O (stereo partly specified)
Result: 0.00521 µM

Ask: TGI of "O=C1C=C(Nc2ccc(Cl)cc2Cl)c2ccccc2C1=O" on DMS 114 small cell lung?
Result: 64.1 µM
